Every entry's value here was drawn from paper PMC6039199.

# Type: in vivo, human
# conditions-used: human, plasma, po, 15 mg
experimental-endpoint: AUC(0-t) (ng·h/mL)
Express the result in ng·h/mL but write the number alone.

AUC(0-t) recorded for this molecule, `CCOc1ccc(Cc2cc([C@]34OC[C@](CO)(O3)[C@@H](O)[C@H](O)[C@H]4O)ccc2Cl)cc1` , is 1380

###

# Type: in vivo, human
# conditions-used: human, plasma, po, 15 mg
experimental-endpoint: Vd/F (L)
Express it in L; write the number only.

The compound listed as `CCOc1ccc(Cc2cc([C@]34OC[C@](CO)(O3)[C@@H](O)[C@H](O)[C@H]4O)ccc2Cl)cc1` has a reported Vd/F of 215

###

# Format: in vivo, human
# conditions-used: human, plasma, po, 15 mg, t1/2, 15 mg oral unlabeled; arithmetic mean ± SD
experimental-endpoint: half-life (h)
Please reply with the bare figure in h and do not write the unit itself.

The recorded half-life for `CCOc1ccc(Cc2cc([C@]34OC[C@](CO)(O3)[C@@H](O)[C@H](O)[C@H]4O)ccc2Cl)cc1` is 14
